Listing of recorded koff by entry.
target: T1, his-tagged hTfR1 (Acro Biosystems p/n CD1-H5243) (human, UniProt P02786 89-760); experiment: SPR, Biacore X100, His-tagged TfR1 captured by anti-His
T1 construct: Bought reagent of the SPR assay
T1 sequence (P02786 89-760 limits assumed): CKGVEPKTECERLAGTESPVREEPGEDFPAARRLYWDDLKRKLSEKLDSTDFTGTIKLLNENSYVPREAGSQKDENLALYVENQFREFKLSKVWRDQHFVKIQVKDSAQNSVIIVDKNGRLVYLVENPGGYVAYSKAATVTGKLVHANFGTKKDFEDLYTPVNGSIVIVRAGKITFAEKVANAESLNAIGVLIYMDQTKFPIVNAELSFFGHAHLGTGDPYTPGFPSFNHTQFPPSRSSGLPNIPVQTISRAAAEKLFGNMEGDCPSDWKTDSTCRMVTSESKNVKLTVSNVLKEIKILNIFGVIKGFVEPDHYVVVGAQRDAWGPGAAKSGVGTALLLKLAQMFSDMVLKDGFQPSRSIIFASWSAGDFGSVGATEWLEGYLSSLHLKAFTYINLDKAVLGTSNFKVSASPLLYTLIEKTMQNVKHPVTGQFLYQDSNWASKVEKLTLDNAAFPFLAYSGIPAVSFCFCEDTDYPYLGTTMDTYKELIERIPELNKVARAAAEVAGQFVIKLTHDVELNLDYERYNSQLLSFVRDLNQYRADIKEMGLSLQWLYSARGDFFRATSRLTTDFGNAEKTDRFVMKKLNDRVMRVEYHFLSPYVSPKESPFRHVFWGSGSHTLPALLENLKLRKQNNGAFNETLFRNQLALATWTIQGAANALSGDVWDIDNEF

>  <BINDER>
Fab0071 (Fab, V domains shown) VH: EVQLVESGGGLVQPGGSLRLSCATSGYTFNSYWMHWVRQAPGKGLEWVAEINPTNGRTNYIEKFKSRITLSVDKSKSTVYLQMNSLRAEDTAVYYCARGTRAYHYWGQGTLVTVSS VL: DIQLTQSPSSLSASVGDRVTITCRASDGLYSNLAWYQQKPGKAPKLLIYDARNLASGVPSRFSGSGSGTDYTLTISSLQPEDFATYYCQHFWGTPLTFGQGTKVEIKR

>  <VALUE UNIT>
s⁻¹

>  <koff>
0.000865

$$$$
>  <BINDER>
Fab0062 (Fab, V domains shown) VH: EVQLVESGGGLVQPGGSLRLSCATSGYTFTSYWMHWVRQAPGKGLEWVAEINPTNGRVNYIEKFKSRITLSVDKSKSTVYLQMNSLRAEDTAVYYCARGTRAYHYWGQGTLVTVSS VL: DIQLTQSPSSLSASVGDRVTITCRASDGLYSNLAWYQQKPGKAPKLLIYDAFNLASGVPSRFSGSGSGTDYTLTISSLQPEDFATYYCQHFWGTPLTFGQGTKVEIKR

>  <VALUE UNIT>
s⁻¹

>  <koff>
0.00117

$$$$
>  <BINDER>
Fab0067 (Fab, V domains shown) VH: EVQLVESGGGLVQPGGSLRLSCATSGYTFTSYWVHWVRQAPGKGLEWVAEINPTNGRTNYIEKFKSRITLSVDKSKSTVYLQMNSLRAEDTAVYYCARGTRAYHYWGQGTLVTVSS VL: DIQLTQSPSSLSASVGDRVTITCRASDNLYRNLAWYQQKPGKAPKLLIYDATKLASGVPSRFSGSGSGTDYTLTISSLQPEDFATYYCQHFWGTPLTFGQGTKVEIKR

>  <VALUE UNIT>
s⁻¹

>  <koff>
0.000804

$$$$

This collection of values is drawn from patent US20260191981A1.
